- EXPERIMENTAL SETUP: 23 °C
READOUT NAME: solubility (µM)
Your answer should be a plain number; it is taken to be in µM.

Sample O=C(NC(=O)c1c(F)cccc1F)Nc1cc(Cl)c(F)c(Cl)c1F ; solubility observed: 0.0512

====

- EXPERIMENTAL SETUP: pH 7.0; 20 °C
Binary classification by solubility, with 0.1 mM as an inclusive lower bound for 1.0; all other cases are 0.0.

Solved entries:
[[record]]
compound = "CCNc1nc(Cl)nc(NC(C)(C)C)n1"
category = 0.0

[[record]]
compound = "CC(C)N(Cc1ccccc1)C(=O)C(C)(C)C"
category = 1.0

[[record]]
compound = "CCN(Cc1ccc(Cl)nc1)C(=C[N+](=O)[O-])NC"
category = 1.0

[[record]]
compound = "CCCOC(=O)NCCCN(C)C"
category = 1.0

[[record]]
compound = "CCOP(=S)(Oc1cnc(C(C)(C)C)nc1)OC(C)C (stereo not drawn)"
category = 0.0


Given the entry COc1cc(OC)nc(NC(=O)NS(=O)(=O)c2c(-c3nnn(C)n3)cnn2C)n1 , answer whether its solubility meets or surpasses 0.1 mM.
1.0

Given the entry CCCN(CC)CC1COC2(CCC(C(C)(C)C)CC2)O1 (stereo not drawn) , answer whether its solubility meets or surpasses 0.1 mM.
1.0

====

READOUT NAME: solubility (µM)
Your answer should be a plain number; it is taken to be in µM.

Solved entries (count: 3):
[[record]]
compound = "Cc1c(COC(=O)[C@@H]2[C@H](/C=C(\\Cl)C(F)(F)F)C2(C)C)cccc1-c1ccccc1 (racemic)"
numeric_readout = 0.236

[[record]]
compound = "C=CCOC1=NS(=O)(=O)c2ccccc21"
numeric_readout = 672

[[record]]
compound = "CC#CCOC(C)c1ccc(OC)c(OC)c1 (stereo not drawn)"
numeric_readout = 4.27


Sample C/C(=N\NC(=O)Nc1cc(F)cc(F)c1)c1ncccc1C(=O)O ; solubility observed: 188

Sample CC(C)(C)N(NC(=O)c1ccc(Cl)cc1)C(=O)c1ccccc1 ; solubility observed: 36.3

Sample COC(C)(C)CCCC(C)C/C=C/C(C)=C/C(=O)OC(C)C (stereo not drawn) ; solubility observed: 4.51

Sample CCC(Nc1ncnc(C)c1Cl)c1ccc(OC(F)F)cc1 (stereo not drawn) ; solubility observed: 101

====

- EXPERIMENTAL SETUP: pH 7.0
READOUT NAME: solubility

Sample C#CCOc1cc(-n2nc3n(c2=O)CCCC3)c(Cl)cc1Cl ; solubility observed: 47.3 µM

====

- EXPERIMENTAL SETUP: pH 7.4; 20 °C
READOUT NAME: solubility
Give your result as the value with the unit written after it.

Sample NC(=O)c1nc(-c2ccccc2)n(-c2ccc(Cl)c(COCC(F)(F)C(F)(F)F)c2)n1 ; solubility observed: 2.17 µM

====

- EXPERIMENTAL SETUP: pH 5.0; 20 °C
READOUT NAME: solubility (µM)
Your answer should be a plain number; it is taken to be in µM.

[[record]]
compound = "COC(=O)c1c(Cl)nn(C)c1S(=O)(=O)NC(=O)Nc1nc(OC)cc(OC)n1"
numeric_readout = 34.3

[[record]]
compound = "CCOc1ccccc1OS(=O)(=O)NC(O)=Nc1nc(OC)cc(OC)n1"
numeric_readout = 65.3

[[record]]
compound = "CCS(=O)(=O)c1nc2ccccn2c1S(=O)(=O)NC(=O)Nc1nc(OC)cc(OC)n1"
numeric_readout = 38.1

[[record]]
compound = "O=C1CC(C(=O)O)CC(=O)C1=C(O)C1CC1 (stereo not given)"
numeric_readout = 5800


Sample CC(C)(C)c1cc([N+](=O)[O-])cc([N+](=O)[O-])c1O ; solubility observed: 18.7

====

- EXPERIMENTAL SETUP: 20 °C
Parameter solubility: see the listing below.
Your answer should be a plain number; it is taken to be in µM.

Sample N#Cc1nn(-c2c(Cl)cc(C(F)(F)F)cc2Cl)c(N)c1S(=O)C(F)(F)F (stereo not drawn) ; solubility observed: 4.35

Sample CCCCCCCCSC(=O)Oc1cc(Cl)nnc1-c1ccccc1 ; solubility observed: 3.96

====

# met = logP below 4 (exclusive); not met = logP at/above 4

Solved entries:
[[record]]
compound = "CC1(C)OC[C@@H]2O[C@@]3(C(=O)O)OC(C)(C)O[C@H]3[C@@H]2O1"
category = "met"

[[record]]
compound = "COc1ccsc1CN(C(=O)CCl)c1c(C)cccc1C"
category = "met"

[[record]]
compound = "CCN(CC)C(=O)C(Cl)=C(C)OP(=O)(OC)OC"
category = "met"

[[record]]
compound = "CNC(=O)ON=C(C)C(C)SC (stereo not drawn)"
category = "met"

[[record]]
compound = "CC(C)OC(=O)C(O)(c1ccc(Br)cc1)c1ccc(Br)cc1"
category = "not met"


We now examine a further compound.
In plain terms, does COCC(=O)N(c1c(C)cccc1C)N1CCOC1=O come in under 4 for logP?
met

====

- EXPERIMENTAL SETUP: pH 7.2; 20 °C
READOUT NAME: solubility (µM)
Your answer should be a plain number; it is taken to be in µM.

Sample C[Si](Cn1cncn1)(c1ccc(F)cc1)c1ccc(F)cc1 ; solubility observed: 171

====

- EXPERIMENTAL SETUP: 20 °C
READOUT NAME: solubility (µM)
Your answer should be a plain number; it is taken to be in µM.

Solved entries (count: 2):
[[record]]
molecule = "CC1(C)C(C=C(Cl)Cl)C1C(=O)OC(C#N)c1ccc(F)c(Oc2ccccc2)c1 (stereo not drawn)"
readout_name = "solubility"
numeric_readout = 0.00691

[[record]]
molecule = "COCC(=O)N(c1c(C)cccc1C)N1CCOC1=O"
readout_name = "solubility"
numeric_readout = 12200


Shift focus to the following entry.
Sample O=C(NC(=O)c1ccccc1Cl)Nc1ccc(OC(F)(F)F)cc1 ; solubility observed: 0.0697

====

Parameter solubility: see the listing below.
- EXPERIMENTAL SETUP: pH 5.0; 25 °C
Your answer should be a plain number; it is taken to be in µM.

Solved entries (count: 2):
[[record]]
molecule_smiles = "COc1nc(C)nc(NC(=O)NS(=O)(=O)c2ccccc2OCCCl)n1"
numeric_readout = 79.6

[[record]]
molecule_smiles = "CCCN(CCC)c1c([N+](=O)[O-])cc(C(F)(F)F)cc1[N+](=O)[O-]"
numeric_readout = 0.701


Shift focus to the following entry.
Sample CCOc1nc(NC)nc(NC(=O)NS(=O)(=O)c2ccccc2C(=O)OC)n1 ; solubility observed: 4.14

====

- EXPERIMENTAL SETUP: 26 °C
READOUT NAME: solubility (µM)
Your answer should be a plain number; it is taken to be in µM.

Sample O=C(O)c1c(Cl)c(Cl)c(Cl)c(Cl)c1C(O)=Nc1cccc(Cl)c1Cl ; solubility observed: 31.3

====

- EXPERIMENTAL SETUP: pH 7.0; 25 °C
READOUT NAME: solubility (µM)
Your answer should be a plain number; it is taken to be in µM.

[[record]]
molecule_smiles = "C=C(C)CN(CC)c1c([N+](=O)[O-])cc(C(F)(F)F)cc1[N+](=O)[O-]"
u = "µM"
numeric_readout = 0.735


Shift focus to the following entry.
Sample CCOC(=O)CSc1nc(C(C)(C)C)nn1C(=O)N(C)C ; solubility observed: 1380

====

- EXPERIMENTAL SETUP: pH 5.6
READOUT NAME: logD
// no unit, no text: just the number

Sample O=c1c2cc(F)ccc2nc(-n2cncn2)n1-c1ccc(Cl)cc1Cl ; logD observed: 3.24

====

Parameter logP: see the listing below.
// no unit, no text: just the number

[[record]]
compound = "CC1(C)OC(c2ccco2)CN1C(=O)C(Cl)Cl (centres undefined)"
readout_name = "logP"
numeric_readout = 2.12

[[record]]
compound = "COC(=O)/C=C(\\C)OP(=O)(OC)OC"
readout_name = "logP"
numeric_readout = 0.13


Sample COP(=O)(OC)OC1=C(Cl)C2C=CCC12 (centres undefined) ; logP observed: 2.32

Sample C=C/C=C\CC1=C(C)[C@@H](OC(=O)[C@@H]2[C@@H](C=C(C)C)C2(C)C)CC1=O ; logP observed: 5.9

====

- EXPERIMENTAL SETUP: pH 5.0
Parameter logD: see the listing below.
// no unit, no text: just the number

Solved entries (count: 2):
[[record]]
molecule_smiles = "CCS(=O)(=O)c1cccnc1S(=O)(=O)NC(=O)Nc1nc(OC)cc(OC)n1"
numeric_readout = 0.29

[[record]]
molecule_smiles = "COc1nc(C)nc(NC(=O)NS(=O)(=O)c2ccccc2OCCCl)n1"
numeric_readout = 1.1


Sample CCOc1nc(NC)nc(NC(=O)NS(=O)(=O)c2ccccc2C(=O)OC)n1 ; logD observed: 1.59

Sample COc1cc(OC)nc(Sc2cccc(Cl)c2C(=O)[O-])n1.[Na+] ; logD observed: 0.6
